Listed compounds paired with reported GI50
- System: 786-0
- Protocol summary: NCI tumour cell line growth inhibition, 48 h
Activity calls are given as the source filed them. Cut-off read from the data, not from the text of the source: active = GI50 up to about 1.1 µM and inactive = higher.

COC(=O)C(/C(=N\O)C(=O)Nc1cccc(Cl)c1C)c1cnc2ccccc2n1 (stereo not given): > 100 µM (inactive)

Consider the compound `Cc1ccc(NCCCN2CCN(CCCNc3ccc(C)c4sc5ccccc5c(=O)c34)CC2)c2c(=O)c3ccccc3sc12` and give its measured GI50.
95.5 µM (inactive)

Can you look up the measured GI50 of `Cn1c2c(c3ccccc31)CCN1OCC=C[C@@H](C(=O)O)[C@@H]21` for me?
> 100 µM (inactive)

GET /values?readout=GI50&item= `CCCCNC(=O)Cn1c2ccc(Br)cc2c2nc3ccccc3nc21`
> 100 µM (inactive)

Field request: GI50 | item: COCCNC1CCC2(SCCS2)c2[nH]c3ccccc3c21 (stereo not given)
31.8 µM (inactive)
